Test system: MSTO-211H xenograft
Experiment: Inhibition of mouse xenograft MSTO-211H tumors
Type: in vivo, BALB/c nude mice
Conditions: day 23 after the start of treatment; 12.5 mg/kg, PO, BID
Binary classification by Tumor size (mean), with 100 mm^3 as an inclusive lower bound for true; all other cases are false.

Here's what some known entries look like.
[[record]]
compound = "COc1cc(C2=CCC(C(F)(F)F)CC2)c2ncc(C(=O)N[C@H](C)c3ncco3)cc2c1 (some centres unmarked)"
group_label = "false"

[[record]]
compound = "C[C@@H](NC(=O)c1cnc2c(C3=CCC4(CC3)CC4)cccc2c1)c1ncco1"
group_label = "true"

[[record]]
compound = "COc1cc(C2=CCC(C(F)(F)F)CC2)c2ncc(C(=O)N[C@H](C)CO)cc2c1 (some centres unmarked)"
group_label = "false"


Note: attention shifts to another entry.
Ask | Does Tumor size (mean) meet or surpass 100 mm^3 for C[C@H](CO)NC(=O)c1cnc2c(C3=CCC(C(F)(F)F)CC3)cccc2c1 (some centres unmarked) ?
Reply | true
